# System: Amaranthus tuberculatus
# experiment: Pre-emergence herbicidal evaluation, AMATA
# Type: in vivo
# condition.notes: 0.100 kg/ha, three weeks after treatment
reported.endpoint: phytotoxicity rating AMATA

>  <chemical.structure>
CCN(C(=O)COc1nnc(C(F)(F)C(F)(F)F)s1)C1=CC(C)(C)CC(C)=C1

>  <result.value>
0 (0 - No effect)

$$$$
>  <chemical.structure>
CC1=CC(N(C(=O)COc2nc3ccccc3o2)C(C)C)=CC(C)(C)C1

>  <result.value>
4 (4 - Injury)

$$$$
>  <chemical.structure>
CC1=CC(N(C)C(=O)COc2nnc(C(F)(F)F)s2)=CC(C)(C)C1

>  <result.value>
0 (0 - No effect)

$$$$
>  <chemical.structure>
CCc1nnc(OCC(=O)N(C)C2=CC(C)(C)CC(C)=C2)s1

>  <result.value>
0 (0 - No effect)

$$$$
>  <chemical.structure>
CC1=CC(N(C(=O)COc2nnc(C(F)(F)F)s2)C(C)C)=CC(C)(C)C1

>  <result.value>
6 (6 - Herbicidal effect)

$$$$
>  <chemical.structure>
CCN(C(=O)COc1nnc(C(F)(F)F)s1)C1=CC(C)(C)CC(C)=C1

>  <result.value>
0 (0 - No effect)

$$$$
>  <chemical.structure>
CCc1nnc(OCC(=O)N(C2=CC(C)(C)CC(C)=C2)C(C)C)s1

>  <result.value>
0 (0 - No effect)

$$$$
>  <chemical.structure>
CCc1nnc(OCC(=O)N(CC)C2=CC(C)(C)CC(C)=C2)s1

>  <result.value>
0 (0 - No effect)

$$$$
>  <chemical.structure>
CC1=CC(N(C)C(=O)COc2nnc(C(F)(F)C(F)(F)F)s2)=CC(C)(C)C1

>  <result.value>
0 (0 - No effect)

$$$$
>  <chemical.structure>
CCN(C(=O)COc1nc2ccccc2o1)C1=CC(C)(C)CC(C)=C1

>  <result.value>
2 (2 - Slight effect)

$$$$
>  <chemical.structure>
CC1=CC(N(C)C(=O)COc2nc3ccccc3o2)=CC(C)(C)C1

>  <result.value>
0 (0 - No effect)

$$$$

---

# Test system: Apera spica venti
# experiment: Pre-emergence herbicidal evaluation, APESV
# Assay type: in vivo
# condition.notes: 0.400 kg/ha, three weeks after treatment
reported.endpoint: phytotoxicity rating APESV

>  <molecule>
CC1=CC(N(C)C(=O)COc2nc3ccccc3o2)=CC(C)(C)C1 [Example 16]

>  <system.under.test>
Apera spica venti

>  <result.value>
8 (8 - Approaching complete kill)

$$$$
>  <molecule>
CCN(C(=O)COc1nnc(C(F)(F)C(F)(F)F)s1)C1=CC(C)(C)CC(C)=C1 [Example 8]

>  <system.under.test>
Apera spica venti

>  <result.value>
8 (8 - Approaching complete kill)

$$$$
>  <molecule>
CCc1nnc(OCC(=O)N(C2=CC(C)(C)CC(C)=C2)C(C)C)s1 [Example 11]

>  <system.under.test>
Apera spica venti

>  <result.value>
5 (5 - Definite injury)

$$$$
>  <molecule>
CC1=CC(N(C(=O)COc2nc3ccccc3o2)C(C)C)=CC(C)(C)C1 [Example 17]

>  <system.under.test>
Apera spica venti

>  <result.value>
9 (9 - Complete kill)

$$$$
>  <molecule>
CC1=CC(N(C)C(=O)COc2nnc(C(F)(F)F)s2)=CC(C)(C)C1 [Example 3]

>  <system.under.test>
Apera spica venti

>  <result.value>
8 (8 - Approaching complete kill)

$$$$
>  <molecule>
CCN(C(=O)COc1nc2ccccc2o1)C1=CC(C)(C)CC(C)=C1 [Example 2]

>  <system.under.test>
Apera spica venti

>  <result.value>
9 (9 - Complete kill)

$$$$
>  <molecule>
CC1=CC(N(C)C(=O)COc2nnc(C(F)(F)C(F)(F)F)s2)=CC(C)(C)C1 [Example 7]

>  <system.under.test>
Apera spica venti

>  <result.value>
0 (0 - No effect)

$$$$
>  <molecule>
CCc1nnc(OCC(=O)N(C)C2=CC(C)(C)CC(C)=C2)s1 [Example 5]

>  <system.under.test>
Apera spica venti

>  <result.value>
3 (3 - Moderate effect)

$$$$
>  <molecule>
CC1=CC(N(C(=O)COc2nnc(C(F)(F)F)s2)C(C)C)=CC(C)(C)C1 [Example 4]

>  <system.under.test>
Apera spica venti

>  <result.value>
9 (9 - Complete kill)

$$$$
>  <molecule>
CCc1nnc(OCC(=O)N(CC)C2=CC(C)(C)CC(C)=C2)s1 [Example 6]

>  <system.under.test>
Apera spica venti

>  <result.value>
0 (0 - No effect)

$$$$
>  <molecule>
CCN(C(=O)COc1nnc(C(F)(F)F)s1)C1=CC(C)(C)CC(C)=C1 [Example 1]

>  <system.under.test>
Apera spica venti

>  <result.value>
9 (9 - Complete kill)

$$$$

Source: patent US6339042B1
